Cited source for all entries: paper PMC3950631

# target-or-system: Gap1p (Saccharomyces cerevisiae)
# Construct: gene GAP1; native chromosomal permease in intact yeast cells, full length, plasma membrane; assigned by gene disruption and growth medium
# Sequence (P19145 whole entry): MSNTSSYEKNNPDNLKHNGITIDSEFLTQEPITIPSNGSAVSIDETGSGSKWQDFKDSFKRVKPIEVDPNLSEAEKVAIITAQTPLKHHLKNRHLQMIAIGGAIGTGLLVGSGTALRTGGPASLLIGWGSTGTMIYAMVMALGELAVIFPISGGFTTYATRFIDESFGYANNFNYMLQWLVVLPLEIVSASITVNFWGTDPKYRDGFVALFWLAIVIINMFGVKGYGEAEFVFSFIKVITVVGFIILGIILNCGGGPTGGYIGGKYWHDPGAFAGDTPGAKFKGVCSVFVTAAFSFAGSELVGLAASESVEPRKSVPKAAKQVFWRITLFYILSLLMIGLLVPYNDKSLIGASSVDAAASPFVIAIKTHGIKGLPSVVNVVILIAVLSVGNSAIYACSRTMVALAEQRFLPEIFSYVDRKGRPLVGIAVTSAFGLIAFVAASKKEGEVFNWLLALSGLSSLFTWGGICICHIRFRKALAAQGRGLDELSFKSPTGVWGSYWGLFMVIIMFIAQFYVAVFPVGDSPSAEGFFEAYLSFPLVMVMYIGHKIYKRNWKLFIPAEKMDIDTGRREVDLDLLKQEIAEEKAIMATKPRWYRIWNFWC
# method: inhibition of […] L-[…]-phenylalanine uptake into intact yeast cells
# Assay type: cell-based
# measurement-setup: read-out: Percentage inhibition / Y294Δbap2
measurement-name: inhibition at 200 µM (%)

See these solved cases before continuing.
{"columns": ["compound", "inhibition at 200 µM / %"],
 "data": [
  ["NC(=O)NCCC[C@H](N)C(=O)O [Citrulline]", 40],
  ["CC(CC(N)C(=O)O)C(F)(F)F (racemic) [DL-trifluoroleucine]", 42],
  ["CC(C)C[C@H](N)C(=O)O [Leucine]", 75],
  ["N[C@@H](Cc1ccc(O)cc1)C(=O)O [Tyrosine]", 81],
  ["N[C@@H](Cc1c[nH]c2ccccc12)C(=O)O [Tryptophan]", 86]
]}

[1] CC(C)[C@H](N)C(=O)O [Valine]
[2] NC(=O)C[C@H](N)C(=O)O [Asparagine]
// select label with min value of measured inhibition at 200 µM from [ 1 , 2 ] // return label of chosen record 2
(2: 37%, 1: 71%)
